The values you see were collected from ChEMBL document CHEMBL1157684.

- SYSTEM UNDER TEST: DNA topoisomerase 1 (Homo sapiens) (UniProt P11387)
- Sequence (whole entry): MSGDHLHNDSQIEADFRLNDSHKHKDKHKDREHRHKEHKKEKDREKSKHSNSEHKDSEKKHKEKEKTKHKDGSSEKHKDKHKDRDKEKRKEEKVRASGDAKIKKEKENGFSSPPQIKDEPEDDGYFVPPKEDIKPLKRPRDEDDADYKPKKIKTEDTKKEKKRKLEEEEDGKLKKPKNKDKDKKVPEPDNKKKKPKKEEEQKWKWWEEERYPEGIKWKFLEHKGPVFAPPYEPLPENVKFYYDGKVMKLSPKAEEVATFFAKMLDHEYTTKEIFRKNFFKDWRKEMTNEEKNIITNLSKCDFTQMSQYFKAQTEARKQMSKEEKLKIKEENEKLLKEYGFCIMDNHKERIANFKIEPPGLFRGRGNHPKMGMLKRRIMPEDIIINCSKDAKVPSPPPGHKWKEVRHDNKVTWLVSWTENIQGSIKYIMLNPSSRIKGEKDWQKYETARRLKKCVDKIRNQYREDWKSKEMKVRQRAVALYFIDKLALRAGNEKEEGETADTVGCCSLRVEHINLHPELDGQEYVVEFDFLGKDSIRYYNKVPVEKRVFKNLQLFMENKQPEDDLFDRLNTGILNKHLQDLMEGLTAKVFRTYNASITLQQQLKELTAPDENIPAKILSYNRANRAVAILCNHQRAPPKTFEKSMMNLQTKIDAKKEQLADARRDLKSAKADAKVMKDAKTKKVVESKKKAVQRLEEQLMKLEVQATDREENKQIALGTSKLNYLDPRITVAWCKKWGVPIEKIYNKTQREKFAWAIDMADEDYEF
- ASSAY OVERVIEW: Inhibition of human recombinant DNA topoisomerase 1-mediated relaxation of supercoiled pBR322 DNA at 100 uM after 30 mins by agarose gel electrophoresis

>  <TEST SMILES>
Clc1ccc(-c2cc(-c3ccoc3)cc(-c3cccnc3)n2)s1

>  <inhibition (%)>
2

$$$$
>  <TEST SMILES>
Clc1cccc(-c2cc(-c3ccc(Cl)o3)cc(-c3ccc(Cl)s3)n2)c1

>  <inhibition (%)>
13.3

$$$$
>  <TEST SMILES>
Cc1ccsc1-c1cc(-c2ccc(Cl)o2)cc(-c2ccco2)n1

>  <inhibition (%)>
7.8

$$$$
>  <TEST SMILES>
Clc1ccc(-c2cc(-c3ccco3)nc(-c3ccc(Cl)s3)c2)o1

>  <inhibition (%)>
23.1

$$$$
>  <TEST SMILES>
Clc1cccc(-c2cc(-c3ccoc3)cc(-c3ccc(Cl)s3)n2)c1

>  <inhibition (%)>
2.1

$$$$
>  <TEST SMILES>
Cc1ccc(-c2cc(-c3ccoc3)cc(-c3ccc(Cl)s3)n2)o1

>  <inhibition (%)>
13.2

$$$$
>  <TEST SMILES>
Clc1ccc(-c2cc(-c3ccoc3)cc(-c3ccc(Cl)s3)n2)cc1

>  <inhibition (%)>
2.3

$$$$
>  <TEST SMILES>
Cc1ccsc1-c1cc(-c2ccc(Cl)o2)cc(-c2cccc(Cl)c2)n1

>  <inhibition (%)>
5.9

$$$$
>  <TEST SMILES>
Cc1cccc(-c2cc(-c3ccoc3)cc(-c3ccc(Cl)s3)n2)c1

>  <inhibition (%)>
2.6

$$$$
>  <TEST SMILES>
Cc1ccsc1-c1cc(-c2ccc(Cl)o2)cc(-c2cccnc2)n1

>  <inhibition (%)>
21.4

$$$$
>  <TEST SMILES>
Clc1ccc(-c2cc(-c3ccoc3)cc(-c3ccccc3Cl)n2)s1

>  <inhibition (%)>
0

$$$$
>  <TEST SMILES>
Cc1ccsc1-c1cc(-c2ccoc2)cc(-c2ccco2)n1

>  <inhibition (%)>
5.4

$$$$
